tested on: PARG in HeLa cell line; assay: PARG cell assay (PAR chain immunofluorescence after MMS); type: cell-based; conditions: Homo sapiens; HeLa cells, MMS 50 μg/mL; read-out: PARG Cell IC50 Geomean
pIC50: −log10 of the molar value.
MEASUREMENT TYPE: pIC50

Field: example entries. Status: answers known.
response.value for Cc1nc(C)c(Cn2c(=O)n(Cc3cnn(C)c3)c(=O)c3cc(S(=O)(=O)NC4(C)CC4)ccc32)s1 [Example 170] (field: pIC50) = 7.70

response.value for Cc1cc(Cn2nc(NCCN(C)C)c3ccc(S(=O)(=O)NC4(C)CC4)cc3c2=O)on1 [Example 253] (field: pIC50) = 5.69

response.value for C#CCn1c(=O)n(Cc2cc(C)no2)c(=O)c2cc(S(=O)(=O)NC3(C)CC3)ccc21 [Example 198] (field: pIC50) = 7.12

response.value for COCCn1c(=O)n(Cc2cnn(C)c2)c(=O)c2cc(S(=O)(=O)NC3(C#N)CC3)ccc21 [Example 357] (field: pIC50) = 5.80

response.value for CC(C)n1c(=O)n(Cc2cnn(C)c2)c(=O)c2cc(S(=O)(=O)NC3(C)CC3)ccc21 [Example 292] (field: pIC50) = 6.66

P. CN1CCC(Cn2c(=O)n(Cc3cnn(C)c3)c(=O)c3cc(S(=O)(=O)NC4(C)CC4)ccc32)CC1 [Example 372]
Q. Cc1cc(Cn2c(=O)c3cc(S(=O)(=O)NC4(C)CC4)ccc3n(CC3CCCN3C)c2=O)on1 (stereo not drawn) [Example 249]
Between the entries labelled P and Q , which has a larger pIC50 value on record? // output: label of the selected item Q

I. Cc1ncc(Cn2c(=O)n(C)c(=O)c3cc(S(=O)(=O)NC4(C)CC4)ccc32)s1 [Example 126]
II. Cc1nc(C)c(Cn2c(=O)n(Cc3cnn(C)c3)c(=O)c3cc(S(=O)(=O)NC4(C)CC4)c(F)cc32)s1 [Example 396]
III. Cn1cc(Cn2c(=O)c3cc(S(=O)(=O)NC4(C#N)CC4)ccc3n(Cc3cnn(C)c3)c2=O)cn1 [Example 378]
IV. Cn1cc(Cn2c(=O)c3cc(S(=O)(=O)NC4(C)CC4)ccc3n(CC3CCCCO3)c2=O)cn1 (stereo not drawn) [Example 257]
V. Cn1cc(Cn2c(=O)c3cc(S(=O)(=O)NC4(C#N)CC4)ccc3n(CC3(C)COC3)c2=O)cn1 [Example 376]
With regard to pIC50, arrange the entries in ascending order, please. A ranking is expressed here by listing the labels in the requested order. V, III, I, IV, II
(V: 4.84, III: 5.71, I: 6.67, IV: 7.01, II: 7.77)

P. Cc1cc(Cn2nc(CC3CC3)c3ccc(S(=O)(=O)NC4(C)CC4)cc3c2=O)on1 [Example 318]
Q. CCn1c(=O)n(Cc2cnn(C)c2)c(=O)c2cc(S(=O)(=O)NC3(C)CC3)c(F)cc21 [Example 389]
Between the entries labelled P and Q , which has a larger pIC50 value on record? // output: label of the selected item Q

P. Cc1cc(Cn2c(=O)c3cc(S(=O)(=O)NC4(C)CC4)ccc3n(Cc3noc(C)n3)c2=O)on1 [Example 243]
Q. Cn1c(=O)n(Cc2cnn(CC#N)c2)c(=O)c2cc(S(=O)(=O)NC3(C)CC3)ccc21 [Example 217]
Looking at recorded values for pIC50, does P or Q come in lower? // output: label of the selected item Q
(Q: 6.28, P: 6.66)
